Some compounds, each annotated with its measured Z.LYZ.NS.
system: ISC-enriched organoids; assay: Primary screen, 384-well 2.5-D organoid differentiation (ENR+CD, 6 days): basal lysozyme secretion (LYZ.NS); format: cell-based, murine; settings: primary screen, dose 0.40 uM, standard z score of FC
I'd appreciate a reply containing only the number, no unit.

Past entries and their recorded results:
compound: COc1cc(OC2CCN(C)CC2)ccc1Nc1ncc2c(n1)n(C1CCCC1)c(=O)n2C [AZ 3146]
readout.value: −0.327

compound: Cc1cc([C@@H](C)Nc2ccccc2C(=O)O)c2nc(N3CCOCC3)cc(=O)n2c1 [AZD6482]
readout.value: 0.660

For the compound COC1CCN(C(=O)c2cc(Cc3n[nH]c(=O)c4ccccc34)ccc2F)CC1 [AZD2461] , report Z.LYZ.NS.
−0.327

For the compound O=C1NC(=O)/C(=C/c2ccc(-c3ccc(F)cc3O)o2)S1 [AS-252424] , report Z.LYZ.NS.
−0.368

For the compound CNC(=O)[C@H](Cc1ccccc1)NC(=O)[C@H](CC(C)C)[C@H](CSc1cccs1)C(=O)NO [Batimastat (BB-94)] , report Z.LYZ.NS.
0.042

----------
tested on: ISC-enriched organoids; assay: Primary screen, 384-well 2.5-D organoid differentiation (ENR+CD, 6 days): basal lysozyme secretion (LYZ.NS); type: cell-based, murine; settings: Dose 10.00 uM; ENR+CD, 6 days; FC vs plate median
Some compounds, each annotated with its measured Dose.FC.LYZ.NS.
# output: bare number, implied unit log 2 fold change

Past entries and their recorded results:
compound: CCn1c2ccccc2c2cc(Nc3ccnc(NCCCN4CCOCC4)n3)ccc21
Dose.FC.LYZ.NS (log 2 fold change): −0.203
--
compound: CC(C)(C)c1nc(-c2cccc(NS(=O)(=O)c3c(F)cccc3F)c2F)c(-c2ccnc(N)n2)s1
Dose.FC.LYZ.NS (log 2 fold change): −0.250

For the compound CC(C)c1cc(-c2n[nH]c(=O)n2-c2ccc3c(ccn3C)c2)c(O)cc1O [Ganetespib (STA-9090)] , report Dose.FC.LYZ.NS.
−0.136

For the compound Cc1[nH]c2ccccc2c1CCNC(=O)c1cccs1 , report Dose.FC.LYZ.NS.
−0.108

For the compound CN(C)C(=O)[C@H](O)[C@H](Cc1ccccc1)NC(=O)c1cc2cc(Cl)ccc2[nH]1 , report Dose.FC.LYZ.NS.
−0.057

For the compound OC[C@H]1O[C@@H](c2ccc(Cl)c(Cc3ccc(O[C@H]4CCOC4)cc3)c2)[C@H](O)[C@@H](O)[C@@H]1O , report Dose.FC.LYZ.NS.
0.017

----------
system: ISC-enriched organoids; experiment: Primary screen, 384-well 2.5-D organoid differentiation (ENR+CD, 6 days): basal lysozyme secretion (LYZ.NS); format: cell-based, murine; settings: primary screen, dose 0.08 uM, ENR+CD 6 days, FC vs plate median
result.type: Dose.FC.LYZ.NS (log 2 fold change)
# output: bare number, implied unit log 2 fold change

Past entries and their recorded results:
sample.smiles: CC(C)N(CC[C@H](c1ccccc1)c1cc(CO)ccc1O)C(C)C
Dose.FC.LYZ.NS [log 2 fold change]: 0.069
--
sample.smiles: COc1cc(F)c(C(C)C)cc1-c1ccc(C(F)(F)F)cc1CN1C(=O)O[C@H](c2cc(C(F)(F)F)cc(C(F)(F)F)c2)[C@@H]1C
Dose.FC.LYZ.NS [log 2 fold change]: 0.013
--
sample.smiles: COc1cc(N2CCC(N)CC2)ccc1Nc1ncc(Cl)c(-c2c[nH]c3ccccc23)n1
Dose.FC.LYZ.NS [log 2 fold change]: −0.147

Note: attention shifts to another entry.
For the compound O=C(O)c1cccc(-c2noc(-c3ccccc3F)n2)c1 , report Dose.FC.LYZ.NS.
0.029
